# TEST PROTOCOL: Metabolic stability in rat liver microsomes assessed as intrinsic clearance preincubated for 5 mins followed by NADPH addition and measured up to 60 mins by LC-MS/MS analysis
# Assay type: ADME, Microsome
# PROTOCOL CONDITIONS: time < 65 min, read-out: CLH
READOUT TYPE: CLint scaled (mL/min/kg)
Write the number in mL/min/kg without appending the unit.

Asked: Give the measured CLint scaled of CCOc1cc(-n2c(-c3ccc(-n4ccnc4)cc3)cc3ccc(C(=O)OC)cc32)ccc1C(N)=O .
Given back: 15.8

----------
Assignment: determine reported half-life for the given compounds.
# TEST PROTOCOL: Half life in Sprague-Dawley rat at 10 mg/kg, iv by LC-MS/MS analysis
# Assay type: ADME, organism-based
# PROTOCOL CONDITIONS: in vivo
Write the number in min without appending the unit.

Asked: Give the measured half-life of CCOc1cc(-n2c(-c3ccc(-n4ccnc4)cc3)cc3ccc(C(=O)OC)cc32)ccc1C(N)=O .
Given back: 36

Asked: Give the measured half-life of CCOc1cc(-n2c(-c3ccc(-n4ccnc4)cc3)cc3ccc(C(=O)O)cc32)ccc1C(N)=O .
Given back: 51

----------
# TEST PROTOCOL: MRT (0 to t) in male C57BL/6 mouse at 2 mg/kg, iv by LC-MS/MS analysis
# Format: ADME, organism-based
# PROTOCOL CONDITIONS: in vivo
READOUT TYPE: MRT last (min)
Write the number in min without appending the unit.

Asked: Give the measured MRT last of CCOc1cc(-n2c(-c3ccc(-n4ccnc4)cc3)cc3ccc(C(=O)OC)cc32)ccc1C(N)=O .
Given back: 47.4

----------
# TEST PROTOCOL: Half life in male C57BL/6 mouse at 10 mg/kg, po by LC-MS/MS analysis
# Format: ADME, organism-based
# PROTOCOL CONDITIONS: in vivo
READOUT TYPE: half-life (h)
Write the number in h without appending the unit.

Asked: Give the measured half-life of CCOc1cc(-n2c(-c3ccc(-n4ccnc4)cc3)cc3ccc(C(=O)OC)cc32)ccc1C(N)=O .
Given back: 1.27

----------
Assignment: determine reported Tmax for the given compounds.
# TEST PROTOCOL: Tmax in Sprague-Dawley rat at 10 mg/kg, iv by LC-MS/MS analysis
# Format: ADME, organism-based
# PROTOCOL CONDITIONS: in vivo
Write the number in min without appending the unit.

Asked: Give the measured Tmax of CCOc1cc(-n2c(-c3ccc(-n4ccnc4)cc3)cc3ccc(C(=O)OC)cc32)ccc1C(N)=O .
Given back: 4.8

Asked: Give the measured Tmax of CCOc1cc(-n2c(-c3ccc(-n4ccnc4)cc3)cc3ccc(C(=O)O)cc32)ccc1C(N)=O .
Given back: 19.8

----------
Assignment: determine reported inhibition for the given molecules.
# Species: Homo sapiens
# TEST PROTOCOL: Inhibition of GSNOR (unknown origin) at 1 uM in presence of NADH incubated for 10 mins by microplate reader analysis relative to control
Write the number in % without appending the unit.

Asked: Give the measured inhibition of Cc1cc(C(N)=O)ccc1-n1c(-c2ccc(-c3cn(C)nc3C)cc2)cc2ccc(C(=O)O)cc21 .
Given back: 2.44

Asked: Give the measured inhibition of NC(=O)c1ccc(-n2c(-c3ccc(-n4ccnc4)cc3)cc3ccc(C(=O)O)cc32)cc1Cl .
Given back: 93.3

Asked: Give the measured inhibition of CN(C)S(=O)(=O)c1ccc(Cn2c(-c3ccc(-n4ccnc4)cc3)cc3ccc(C(=O)O)cc32)cc1 .
Given back: 94.3

Asked: Give the measured inhibition of CC(C)Oc1cc(-n2c(-c3ccc(-n4ccnc4)cc3)cc3ccc(C(=O)O)cc32)ccc1C(N)=O .
Given back: 92.3

----------
Assignment: determine reported Cmax for the given molecules.
# TEST PROTOCOL: Cmax in Sprague-Dawley rat at 10 mg/kg, iv by LC-MS/MS analysis
# Format: ADME, organism-based
# PROTOCOL CONDITIONS: in vivo

Asked: Give the measured Cmax of CCOc1cc(-n2c(-c3ccc(-n4ccnc4)cc3)cc3ccc(C(=O)O)cc32)ccc1C(N)=O .
Given back: 2930 ng/mL

Asked: Give the measured Cmax of CCOc1cc(-n2c(-c3ccc(-n4ccnc4)cc3)cc3ccc(C(=O)OC)cc32)ccc1C(N)=O .
Given back: 11600 ng/mL

----------
# Species on record: Homo sapiens
# TEST PROTOCOL: Inhibition of GSNOR (unknown origin) at 1 uM in presence of NADH incubated for 10 mins by microplate reader analysis relative to control
READOUT TYPE: inhibition (%)
Write the number in % without appending the unit.

Asked: Give the measured inhibition of NC(=O)c1ccc(-n2c(-c3ccc(-n4ccnc4)cc3)cc3ccc(C(=O)O)cc32)cc1 .
Given back: 81.7

Asked: Give the measured inhibition of N#Cc1cccc(Cn2c(-c3ccc(-n4ccnc4)cc3)cc3ccc(C(=O)O)cc32)c1 .
Given back: 84.4

Asked: Give the measured inhibition of Cc1cc(C(N)=O)ccc1-n1c(-c2ccc(O)cc2)cc2ccc(C(=O)O)cc21 .
Given back: 33.7

Asked: Give the measured inhibition of N#Cc1ccc(Cn2c(-c3ccc(-n4ccnc4)cc3)cc3ccc(C(=O)O)cc32)cc1F .
Given back: 88.9

Asked: Give the measured inhibition of Cc1cc(C(N)=O)ccc1-n1c(-c2ccc(-n3ccnc3)cc2)cc2ccc(C(=O)O)cc21 .
Given back: 81.2

Asked: Give the measured inhibition of Cc1cc(C(N)=O)ccc1-n1c(-c2ccc(NS(N)(=O)=O)cc2)cc2ccc(C(=O)O)cc21 .
Given back: 14.8

Asked: Give the measured inhibition of Cc1cc(-n2c(-c3ccc(-n4ccnc4)cc3)cc3ccc(C(=O)O)cc32)ccc1C(N)=O .
Given back: 72.2

Asked: Give the measured inhibition of Cc1cc(C(N)=O)ccc1-n1c(-c2ccc(-c3ccc(=O)[nH]c3)cc2)cc2ccc(C(=O)O)cc21 .
Given back: 5.7

Asked: Give the measured inhibition of Cc1cc(C(N)=O)ccc1-n1c(-c2ccc(-c3ccncc3)cc2)cc2ccc(C(=O)O)cc21 .
Given back: 12.5

Asked: Give the measured inhibition of NC(=O)c1ccc(-n2c(-c3ccc(-n4ccnc4)cc3)cc3ccc(C(=O)O)cc32)cn1 .
Given back: 60.7

----------
# TGT: CYP2C19 (Homo sapiens, UniProt P33261)
# Sequence (P33261 whole entry): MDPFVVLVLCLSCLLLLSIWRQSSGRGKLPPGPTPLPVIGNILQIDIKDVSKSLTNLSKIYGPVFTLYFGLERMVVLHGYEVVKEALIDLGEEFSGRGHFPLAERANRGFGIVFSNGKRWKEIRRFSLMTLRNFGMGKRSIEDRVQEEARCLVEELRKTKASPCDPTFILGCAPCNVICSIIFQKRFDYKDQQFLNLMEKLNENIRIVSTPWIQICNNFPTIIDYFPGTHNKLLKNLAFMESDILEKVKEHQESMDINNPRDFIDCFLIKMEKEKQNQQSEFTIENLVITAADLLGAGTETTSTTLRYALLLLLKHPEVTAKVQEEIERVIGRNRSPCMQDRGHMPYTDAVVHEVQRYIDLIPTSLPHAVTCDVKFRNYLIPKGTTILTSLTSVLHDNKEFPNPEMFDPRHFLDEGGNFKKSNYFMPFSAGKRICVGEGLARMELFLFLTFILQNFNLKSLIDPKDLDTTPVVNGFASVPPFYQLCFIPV
# TEST PROTOCOL: Inhibition of human CYP2C19 in human liver microsome at 10 uM relative to control
# Type: ADME
# PROTOCOL CONDITIONS: human liver microsomes
READOUT TYPE: inhibition at 10 µM (%)
Write the number in % without appending the unit.

Asked: Give the measured inhibition at 10 µM of CCOc1cc(-n2c(-c3ccc(-n4ccnc4)cc3)cc3ccc(C(=O)O)cc32)ccc1C(N)=O .
Given back: 70.1

----------
# TEST PROTOCOL: Inhibition of GSNOR (unknown origin)
# Design: species or system Homo sapiens
READOUT TYPE: IC50 (nM)
Write the number in nM without appending the unit.

Asked: Give the measured IC50 of O=C(O)c1ccc2cc(-c3ccc(-n4ccnc4)cc3)n(Cc3ccc(F)cc3)c2c1 .
Given back: 649

----------
# TEST PROTOCOL: MRT (0 to t) in Sprague-Dawley rat at 10 mg/kg, iv by LC-MS/MS analysis
# Assay type: ADME, organism-based
# PROTOCOL CONDITIONS: in vivo
READOUT TYPE: MRT last (min)
Write the number in min without appending the unit.

Asked: Give the measured MRT last of CCOc1cc(-n2c(-c3ccc(-n4ccnc4)cc3)cc3ccc(C(=O)O)cc32)ccc1C(N)=O .
Given back: 63

Asked: Give the measured MRT last of CCOc1cc(-n2c(-c3ccc(-n4ccnc4)cc3)cc3ccc(C(=O)OC)cc32)ccc1C(N)=O .
Given back: 42.6
